Attribution: PubChem BioAssay (NCI)

Assay: NCI Yeast Anticancer Drug Screen. Data for the mlh1 rad18 strain (AID 175)
Conditions used: S. cerevisiae mlh1 rad18 strain growth inhibition; at 50.0 µM (retest, dose inferred, filed as 5.0); hits give high values
This is part of a sample that, as a whole, favours compounds with a hit. Of some 79,000 tested, about 15% had one in any assay.
Quick list: growth inhibition per entry.
Property measured: growth inhibition (%)

{"Molecule": "CSCCC([NH-])C(=O)O.CSCCC([NH-])C(=O)O.[Zn+2] (stereo not given)", "Measured value": 3}
{"Molecule": "CC(=O)Nc1ccccc1[As](OC(C)=O)c1ccccc1 (stereo not given)", "Measured value": 98}
{"Molecule": "C(#C[PH+](c1ccccc1)c1ccccc1)c1ccccc1.C(#C[PH+](c1ccccc1)c1ccccc1)c1ccccc1.C(#C[PH+](c1ccccc1)c1ccccc1)c1ccccc1.[C-]#[O+].[C-]#[O+].[C-]#[O+].[Cr]", "Measured value": 37}
{"Molecule": "CC(=O)O[C@H]1CC[C@@]2(C)C(=CC[C@@H]3[C@@H]2CC[C@]2(C)C(=O)[C@@H](CN4CC4)C[C@@H]32)C1", "Measured value": 98}
{"Molecule": "C/C(=N\\NC(N)=O)C(CN1CCCCC1)C(c1ccccc1)c1c(O)c2ccccc2oc1=O (stereo not given)", "Measured value": 17}
{"Molecule": "CN(Cc1ccccc1)CC(O)c1cccc(I)c1 (stereo not given)", "Measured value": 24}
{"Molecule": "C[C@]12CC[C@H]3[C@@H](CCC4=CC(=O)CC[C@@H]43)[C@@H]1CC[C@@H]2OC(=O)N(CCCl)N=O", "Measured value": 94}
{"Molecule": "[Cl][Hg][c]1ccco1", "Measured value": 99}
{"Molecule": "O=[N+]([O-])c1cc(Cl)ccc1S(=O)(=O)F", "Measured value": 98}
{"Molecule": "COc1ccc([As]=[As]c2ccc(OC)cc2)cc1 (stereo not given)", "Measured value": 99}
{"Molecule": "O=C(CBr)Nc1ccc(Cl)cc1", "Measured value": 98}
{"Molecule": "C/C(=N/NC(N)=S)c1ccc(Cl)cc1", "Measured value": 96}
{"Molecule": "O=[As]c1ccc(O)c(O)c1 (stereo not given)", "Measured value": 99}
{"Molecule": "CC(=O)Nc1c2sscc-2n(C)c1=O", "Measured value": 99}
{"Molecule": "CC(=O)[O][Hg][c]1ccc(N)[c]([Hg][O]C(C)=O)c1", "Measured value": 99}
{"Molecule": "Cc1cc2c(cc1O)C(C)(C)CCC2(C)C", "Measured value": 62}
{"Molecule": "O=Cc1ccccc1O.O=Cc1ccccc1O.[O]=[Mo]=[O]", "Measured value": 46}
{"Molecule": "C/C=C(\\C)C(=O)OC1CC(C)(C)CC2C3=CCC4C5(C)CCC(=O)C(C)(C)C5CCC4(C)C3(C)CCC12C(=O)O (stereo not given) (tested in a mixture with another compound)", "Measured value": 82}
{"Molecule": "Clc1cc[c]([Tl][c]2ccc(Cl)cc2)cc1", "Measured value": 98}
{"Molecule": "Cc1ccc(C(=O)C2C(c3ccccc3)N2C2CCCCC2)cc1 (stereo not given)", "Measured value": 92}
{"Molecule": "C[CH2][Pb]([CH2]C)([CH2]C)[O]C(=O)COc1ccc(Cl)cc1Cl", "Measured value": 96}
{"Molecule": "O=C(CCl)Nc1ccc(Cl)cc1", "Measured value": 45}
{"Molecule": "CCOC(=O)C(c1ccsc1)P(=O)(OCC)OCC (stereo not given)", "Measured value": 84}
{"Molecule": "CCC(C)c1cnc(CC(C)C)c(=O)n1O (stereo not given)", "Measured value": 99}
{"Molecule": "COc1ccc(/C=C(\\C)[N+](=O)[O-])cc1OC", "Measured value": 99}
{"Molecule": "C[C@@H]1C[C@@H]([C@H](O)CC2CC(=O)NC(=O)C2)C(=O)[C@@H](C)C1", "Measured value": 99}
{"Molecule": "C(=P(c1ccccc1)(c1ccccc1)c1ccccc1)[P+](c1ccccc1)(c1ccccc1)c1ccccc1.[Cl][Fe]([Cl])([Cl])[Br]", "Measured value": 99}
{"Molecule": "CCCCCc1cc(/C=C2/N=C(c3ccc[nH]3)C=C2OC)[nH]c1C", "Measured value": 77}
{"Molecule": "O=[N+]([O-])/C=C\\C(Cl)(Cl)Cl", "Measured value": 99}
{"Molecule": "O=[N+]([O-])c1c[c]([Hg][Cl])c(O)[c]([Hg][Cl])c1", "Measured value": 99}
